# Procedure text: ATG_ISRE_CIS: Attagene CIS-FACTORIAL HepG2 Assay for human Interferon Regulatory Factor 1 (IRF1) binding to an Interferon-Stimulated Response Element (ISRE) (AID 2282948)
# Measurement parameters: HepG2 ISRE cis-reporter (Attagene), mRNA transcription readout; actives raise or lower the signal
The source made the active and inactive calls. Rule for the calls: active = hit-call score of the fitted dose curve at least 0.9, where 1 is the maximum; inactive = score below 0.9.
Outcome (select one): yes = active, no = inactive

Before answering, review these 6 worked examples.
{"columns": ["Compound", "Label class"],
 "data": [
  ["CCCCCC=O", "no"],
  ["Cc1cccc(N(C)C)c1", "no"],
  ["OCC(F)(F)C(F)(F)C(F)(F)C(F)(F)C(F)(F)C(F)F", "no"],
  ["O=C(O)C(F)(F)C(F)(F)F", "no"],
  ["C=CC/C=C/C/C=C/C/C=C/C", "no"],
  ["O=C(O)C(F)(OC(F)(F)C(F)(OC(F)(F)C(F)(F)C(F)(F)F)C(F)(F)F)C(F)(F)F (stereo unspecified)", "no"]
]}

Recorded call for CC(=O)Nc1ccc(N=Nc2cc(C)ccc2O)cc1 ?
no
